System: 889142-216-R-J1-PDC complex spheroid viability
method-summary: Anticancer human tumor 889142-216-R-J1-PDC patient-derived bladder carcinoma cell line growth inhibition [POLQ]
condition-context: second compound 0.0316 µM; first compound 1 µM; stronger effect = lower value
Procedure: Multicellular complex tumor spheroid response to Polymerase (POL) inhibitors (novobiocin, ART-558, RP6685) in combination with a variety of drugs and investigational agents in selected tumor cell lines The POL inhibitors (novobiocin, ART-558, and RP6685) were evaluated both individually and in combination with standard of care and investigational anticancer small molecules within a complex spheroid model of solid tumors. . […]
hey, just use TRUE if measured viability, T/C is less than 90%, otherwise FALSE

molecule	category
O=c1[nH]cc(F)c(=O)[nH]1 + Cc1cccc(N(C)C(=O)C2C(O)CCN2c2nc(C)cc(C(F)(F)F)c2C#N)c1	FALSE
CNCc1ccc(-c2[nH]c3cc(F)cc4c3c2CCNC4=O)cc1 + Nc1ccc(C#CCN(C(=O)Cc2ncc(C(F)(F)F)cc2C(F)(F)F)c2ccc(F)cc2)nn1	FALSE
O=C(c1cc(Cc2n[nH]c(=O)c3ccccc23)ccc1F)N1CCN(C(=O)C2CC2)CC1 + Cc1cccc(N(C)C(=O)C2C(O)CCN2c2nc(C)cc(C(F)(F)F)c2C#N)c1	TRUE
CC1COCCN1c1cc(-c2ccnn2C)c2ccnc(-c3ccn[nH]3)c2n1 (stereo unspecified) + COC1C(OC(N)=O)C(O)C(Oc2ccc3c(O)c(NC(=O)c4ccc(O)c(CC=C(C)C)c4)c(=O)oc3c2C)OC1(C)C	TRUE
CNCc1ccc(-c2[nH]c3cc(F)cc4c3c2CCNC4=O)cc1 + Cc1cccc(N(C)C(=O)C2C(O)CCN2c2nc(C)cc(C(F)(F)F)c2C#N)c1	FALSE

====

Tested on: 889142-216-R-J1-PDC complex spheroid viability
method-summary: Anticancer human tumor 889142-216-R-J1-PDC cell line growth inhibition [POLQ];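 note: spheroids exposed to compounds for seven days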
condition-context: curve of first compound; second compound 0.316 µM
The reader will find reported IC50 values listed item by item below.

compound	comparative-sign	IC50 (µM)
C#Cc1c(F)ccc2cc(O)cc(-c3ncc4c(N5CC6CCC(C5)N6)nc(OCC56CCCN5CC(F)C6)nc4c3F)c12 (centres undefined) + Cc1cccc(N(C)C(=O)C2C(O)CCN2c2nc(C)cc(C(F)(F)F)c2C#N)c1	=	5.26
COc1ccc([C@@H](O)c2cc(-c3ncnc4cc(N5CCOCC5)ccc34)c(F)cc2Cl)nn1 + Cc1cccc(N(C)C(=O)C2C(O)CCN2c2nc(C)cc(C(F)(F)F)c2C#N)c1	=	2.26
O=c1[nH]cc(F)c(=O)[nH]1 + Cc1cccc(N(C)C(=O)C2C(O)CCN2c2nc(C)cc(C(F)(F)F)c2C#N)c1	>	10
CCCS(=O)(=O)Nc1ccc(F)c(C(=O)c2c[nH]c3ncc(-c4ccc(Cl)cc4)cc23)c1F + COC1C(OC(N)=O)C(O)C(Oc2ccc3c(O)c(NC(=O)c4ccc(O)c(CC=C(C)C)c4)c(=O)oc3c2C)OC1(C)C	=	7.02

====

Test system: 889142-216-R-J1-PDC complex spheroid viability
method-summary: Anticancer human tumor 889142-216-R-J1-PDC cell line growth inhibition [POLQ];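 note: spheroids exposed to compounds for seven days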;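 for viability, T/C: 100% = DMSO vehicle control viability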
condition-context: second compound 0.0316 µM; first compound 1 µM; stronger effect = lower value
The reader will find reported viability, T/C values listed item by item below.

compound	viability, T/C
O=C(c1cc(Cc2n[nH]c(=O)c3ccccc23)ccc1F)N1CCN(C(=O)C2CC2)CC1 + COC1C(OC(N)=O)C(O)C(Oc2ccc3c(O)c(NC(=O)c4ccc(O)c(CC=C(C)C)c4)c(=O)oc3c2C)OC1(C)C	103%
C=CCn1c(=O)c2cnc(Nc3ccc(N4CCN(C)CC4)cc3)nc2n1-c1cccc(C(C)(C)O)n1 + Nc1ccc(C#CCN(C(=O)Cc2ncc(C(F)(F)F)cc2C(F)(F)F)c2ccc(F)cc2)nn1	58.2%
CCCS(=O)(=O)Nc1ccc(F)c(C(=O)c2c[nH]c3ncc(-c4ccc(Cl)cc4)cc23)c1F + COC1C(OC(N)=O)C(O)C(Oc2ccc3c(O)c(NC(=O)c4ccc(O)c(CC=C(C)C)c4)c(=O)oc3c2C)OC1(C)C	109%
